// data source = patent US20240309043A1

Could you please report measured inhibition at 0.1 µM for the items listed next?
- target.or.system: recombinant human 17β-HSD1 (Homo sapiens, UniProt P14061)
- Construct: made in house; host or cells: Sd9 (Sf9) insect cells, baculovirus (Bac to Bac Expression System)
- Sequence (P14061 whole entry): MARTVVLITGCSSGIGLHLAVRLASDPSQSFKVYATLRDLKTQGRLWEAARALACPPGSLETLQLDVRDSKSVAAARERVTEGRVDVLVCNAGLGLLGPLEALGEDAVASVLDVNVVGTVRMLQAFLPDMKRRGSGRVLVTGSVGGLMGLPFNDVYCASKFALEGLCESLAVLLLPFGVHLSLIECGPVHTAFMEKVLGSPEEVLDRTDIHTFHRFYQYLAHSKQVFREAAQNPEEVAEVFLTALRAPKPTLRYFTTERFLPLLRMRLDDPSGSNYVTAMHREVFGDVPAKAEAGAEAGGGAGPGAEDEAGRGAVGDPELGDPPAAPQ
- test: Inhibition of recombinant human 17β-HSD1
- Format: biochemical
- condition.notes: inhibitor 100 nM; 30 nM estrone, 1 mM NADPH, 30 min RT
Please respond with the number in % and leave the unit unwritten.

Incoming: Give the measured inhibition at 0.1 µM of C[C@]12CCC3c4ccc(F)cc4CCC3C1[C@H](CCC(=O)Nc1nncs1)C/C2=N\O (stereo partly shown) [Compound 38] .
Outgoing: 21

Incoming: Reported inhibition at 0.1 µM, compound C[C@]12CCC3c4cccc(F)c4CCC3C1[C@H](CCC(=O)Nc1cc3c([nH]c1=O)CCCC3)C/C2=N\O (stereo partly shown) [Compound 178] : ____
Outgoing: 95

Incoming: Name the recorded inhibition at 0.1 µM for CN(C)C(=O)c1ccc(NC(=O)CC[C@@H]2C/C(=N\O)[C@@]3(C)CCC4c5ccccc5CCC4C23)nc1 (stereo partly shown) [Compound 92] .
Outgoing: 37

Incoming: Value lookup for inhibition at 0.1 µM; key = C[C@]12CCC3c4ccc(Cl)cc4CCC3C1[C@H](CCC(=O)Nc1cc(F)ccn1)C/C2=N\O (stereo partly shown) [Compound 156]
Outgoing: 47

====

- target.or.system: recombinant human 17β-HSD2 (Homo sapiens, UniProt P37059)
- Construct: made in house; host or cells: Sd9 (Sf9) insect cells, baculovirus (Bac to Bac Expression System)
- Sequence (P37059 1-387): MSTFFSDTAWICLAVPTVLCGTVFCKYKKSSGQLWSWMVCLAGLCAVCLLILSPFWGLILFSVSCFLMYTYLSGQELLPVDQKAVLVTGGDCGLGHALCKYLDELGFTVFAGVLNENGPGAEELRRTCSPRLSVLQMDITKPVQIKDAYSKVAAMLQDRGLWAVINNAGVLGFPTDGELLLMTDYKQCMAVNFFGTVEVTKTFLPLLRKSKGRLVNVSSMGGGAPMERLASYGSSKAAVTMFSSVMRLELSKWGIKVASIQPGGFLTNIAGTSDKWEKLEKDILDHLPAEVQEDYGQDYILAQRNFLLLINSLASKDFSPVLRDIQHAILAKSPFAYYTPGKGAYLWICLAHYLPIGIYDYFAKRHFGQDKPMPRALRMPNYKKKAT
- test: Inhibition of recombinant human 17β-HSD2
- Type: biochemical
- condition.notes: inhibitor 1 μM; 50 nM estradiol, 1 mM NADH, 30 min RT
I'd be grateful if you could share measured inhibition at 1 µM for these entries.
Give a bare numeral; the unit % is implied.

Incoming: So what inhibition at 1 µM did COc1ccnc(NC(=O)CC[C@@H]2C/C(=N\O)[C@@]3(C)CCC4c5ccc(Cl)cc5CCC4C23)c1 (stereo partly drawn) [Compound 56] get with recombinant human 17β-HSD2 (Homo sapiens, UniProt P37059)?
Outgoing: 3

Incoming: What value of inhibition at 1 µM on recombinant human 17β-HSD2 (Homo sapiens, UniProt P37059) does Cc1cc(NC(=O)CC[C@@H]2C/C(=N\O)[C@@]3(C)CCC4c5ccc(Cl)cc5CCC4C23)no1 (stereo partly drawn) [Compound 54] have?
Outgoing: 0

Incoming: Kindly state the measured inhibition at 1 µM obtained for C[C@]12CCC3c4cccc(F)c4CCC3C1[C@H](CCC(=O)Nc1cccnn1)C/C2=N\O (stereo partly drawn) [Compound 20] with recombinant human 17β-HSD2 (Homo sapiens, UniProt P37059).
Outgoing: 0

Incoming: Return inhibition at 1 µM measured with recombinant human 17β-HSD2 (Homo sapiens, UniProt P37059) given this compound: CN(C(=O)CC[C@@H]1C/C(=N\O)[C@@]2(C)CCC3c4ccc(F)cc4CCC3C12)C1COC1 (stereo partly drawn) [Compound 36]
Outgoing: 10

Incoming: Recorded inhibition at 1 µM for CC(C)c1ccc(NC(=O)CC[C@@H]2C/C(=N\O)[C@@]3(C)CCC4c5ccccc5CCC4C23)nc1 (stereo partly drawn) [Compound 96] with recombinant human 17β-HSD2 (Homo sapiens, UniProt P37059), please?
Outgoing: -4

Incoming: Form entry - test system: recombinant human 17β-HSD2 (Homo sapiens, UniProt P37059); read-out: inhibition at 1 µM; compound: C[C@]12CCC3c4ccccc4CCC3C1[C@H](CCC(=O)Nc1ncc(F)cc1F)C/C2=N\O (stereo partly drawn) [Compound 166]
Outgoing: 7

Incoming: What inhibition at 1 µM appears in the records for this compound with recombinant human 17β-HSD2 (Homo sapiens, UniProt P37059)? COc1ccc(NC(=O)CC[C@@H]2C/C(=N\O)[C@@]3(C)CCC4c5ccc(Cl)cc5CCC4C23)nn1 (stereo partly drawn) [Compound 50]
Outgoing: -2

Incoming: Can you look up inhibition at 1 µM on recombinant human 17β-HSD2 (Homo sapiens, UniProt P37059) for COc1ccc(NC(=O)CC[C@@H]2C/C(=N\O)[C@@]3(C)CCC4c5ccc(Cl)cc5CCC4C23)nc1 (stereo partly drawn) [Compound 66] ?
Outgoing: 23

Incoming: Could you share what inhibition at 1 µM was measured for CN(C(=O)CC[C@@H]1C/C(=N\O)[C@@]2(C)CCC3c4ccccc4CCC3C12)C1CCOCC1 (stereo partly drawn) [Compound 80] , tested on recombinant human 17β-HSD2 (Homo sapiens, UniProt P37059)?
Outgoing: 4

Incoming: Recall the recorded inhibition at 1 µM for C[C@]12CCC3c4cccc(F)c4CCC3C1[C@H](CCC(=O)Nc1cnccn1)C/C2=N\O (stereo partly drawn) [Compound 126] with recombinant human 17β-HSD2 (Homo sapiens, UniProt P37059) and state it.
Outgoing: 3

Incoming: GET /values?readout=inhibition at 1 µM&system=recombinant human 17β-HSD2 (Homo sapiens, UniProt P37059)&item= CCN(CC)C(=O)CC[C@@H]1C/C(=N\O)[C@@]2(C)CCC3c4ccc(Cl)cc4CCC3C12 (stereo partly drawn) [Compound 52]
Outgoing: 2

Incoming: Record COc1ccc(NC(=O)CC[C@@H]2C/C(=N\O)[C@@]3(C)CCC4c5ccc(F)cc5CCC4C23)nn1 (stereo partly drawn) [Compound 30] : what is its inhibition at 1 µM with recombinant human 17β-HSD2 (Homo sapiens, UniProt P37059)?
Outgoing: 3

Incoming: Checklist item: inhibition at 1 µM tested on recombinant human 17β-HSD2 (Homo sapiens, UniProt P37059), entry C[C@]12CCC3c4ccc(Cl)cc4CCC3C1[C@H](CCC(=O)Nc1ncc(F)cc1F)C/C2=N\O (stereo partly drawn) [Compound 164] , value?
Outgoing: 11

Incoming: Value wanted: inhibition at 1 µM (recombinant human 17β-HSD2 (Homo sapiens, UniProt P37059)) of entry C[C@]12CCC3c4ccc(Cl)cc4CCC3C1[C@H](CCC(=O)Nc1cccnn1)C/C2=N\O (stereo partly drawn) [Compound 44]
Outgoing: 2

Incoming: Tell me reported inhibition at 1 µM for COc1ccnc(NC(=O)CC[C@@H]2C/C(=N\O)[C@@]3(C)CCC4c5ccccc5CCC4C23)c1 (stereo partly drawn) [Compound 106] , tested with recombinant human 17β-HSD2 (Homo sapiens, UniProt P37059).
Outgoing: 2

====

What inhibition at 1 µM was measured for each of the following?
- target.or.system: recombinant human 17β-HSD2 (Homo sapiens)
- Construct: made in house; host or cells: Sd9 (Sf9) insect cells, baculovirus (Bac to Bac Expression System)
- Sequence (P37059 1-387): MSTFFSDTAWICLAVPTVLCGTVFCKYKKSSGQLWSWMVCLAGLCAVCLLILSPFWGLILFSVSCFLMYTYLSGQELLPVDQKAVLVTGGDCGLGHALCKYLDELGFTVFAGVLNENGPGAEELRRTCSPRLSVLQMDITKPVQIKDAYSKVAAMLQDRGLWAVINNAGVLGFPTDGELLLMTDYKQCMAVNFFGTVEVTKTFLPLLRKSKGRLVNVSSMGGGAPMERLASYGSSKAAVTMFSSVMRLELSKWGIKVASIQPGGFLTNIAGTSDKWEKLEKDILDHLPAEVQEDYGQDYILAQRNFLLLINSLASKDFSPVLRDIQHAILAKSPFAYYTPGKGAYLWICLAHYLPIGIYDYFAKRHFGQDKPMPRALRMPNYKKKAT
- test: Inhibition of recombinant human 17β-HSD2
- Format: biochemical
- condition.notes: inhibitor 1 μM; 50 nM estradiol, 1 mM NADH, 30 min RT
Record the value in %, omitting the unit from your answer.

Incoming: What value of measured inhibition at 1 µM is listed for CNC(=O)CC[C@@H]1C/C(=N\O)[C@@]2(C)CCC3c4cccc(F)c4CCC3C12 (stereo partly shown) [Compound 118] ?
Outgoing: 2

Incoming: Which inhibition at 1 µM is listed for C[C@]12CCC3c4cccc(F)c4CCC3C1[C@H](CCC(=O)N1CCOCC1)C/C2=N\O (stereo partly shown) [Compound 136] ?
Outgoing: -1

Incoming: Which value of inhibition at 1 µM has been reported for Cc1cc(NC(=O)CC[C@@H]2C/C(=N\O)[C@@]3(C)CCC4c5ccccc5CCC4C23)no1 (stereo partly shown) [Compound 110] in the records?
Outgoing: -4

Incoming: Which inhibition at 1 µM is listed for CN(C(=O)CC[C@@H]1C/C(=N\O)[C@@]2(C)CCC3c4cccc(F)c4CCC3C12)C1COC1 (stereo partly shown) [Compound 12] ?
Outgoing: 2

Incoming: Fill in the blank: the reported inhibition at 1 µM of CN(C)C(=O)c1ccc(NC(=O)CC[C@@H]2C/C(=N\O)[C@@]3(C)CCC4c5ccc(Cl)cc5CCC4C23)nc1 (stereo partly shown) [Compound 172] is ____.
Outgoing: 9

Incoming: Recorded inhibition at 1 µM for C[C@]12CCC3c4cccc(F)c4CCC3C1[C@H](CCC(=O)NC1CCCCC1)C/C2=N\O (stereo partly shown) [Compound 124] , please?
Outgoing: 4

Incoming: What measured inhibition at 1 µM goes with C[C@]12CCC3c4ccc(Cl)cc4CCC3C1[C@H](CCC(=O)Nc1cccc(F)n1)C/C2=N\O (stereo partly shown) [Compound 170] ?
Outgoing: 12
